Below, each of the binders is paired with its reported EC50 (nM) HT29 value.
# target.system: Carboanhydrase IX (Homo sapiens, UniProt Q16790 38-459)
# test.description: cell-based or functional assay
Please state the figure in nM; there is no need to write the unit.

binder | measure.unit | EC50 (nM) HT29
Example 304 (antibody, human IgG1, kappa, V domains shown, linker-toxophore on cysteine S) VH: QVELVESGGGLVQPGGSLRLSCAASGFTFSSYGMSWVRQAPGKGLEWVSGISSLGSTTYYADSVKGRFTISRDNSKNTLYLQMNSLRAEDTAVYYCARTGSPGTFMHGDHWGQGTLVTVSS VL: DIQMTQSPSSLSASVGDRVTITCRASQDINNYLSWYQQKPGKAPKLLIYGASNLQSGVPSRFSGSGSGTDFTLTISSLQPEDFAVYYCQQYYGRPTTFGQGTKVEIKR | nM | 0.05
Example 294 (antibody, human IgG1, kappa, V domains shown, linker-toxophore on cysteine S) VH: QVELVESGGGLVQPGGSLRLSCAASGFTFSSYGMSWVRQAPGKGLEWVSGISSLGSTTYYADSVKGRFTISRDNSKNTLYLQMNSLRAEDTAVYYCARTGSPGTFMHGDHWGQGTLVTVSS VL: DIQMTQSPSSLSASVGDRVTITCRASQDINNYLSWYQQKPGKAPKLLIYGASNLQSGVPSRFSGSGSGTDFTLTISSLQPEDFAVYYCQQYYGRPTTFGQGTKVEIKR | nM | 13.6
Example 300 (antibody, human IgG1, kappa, V domains shown, linker-toxophore on cysteine S) VH: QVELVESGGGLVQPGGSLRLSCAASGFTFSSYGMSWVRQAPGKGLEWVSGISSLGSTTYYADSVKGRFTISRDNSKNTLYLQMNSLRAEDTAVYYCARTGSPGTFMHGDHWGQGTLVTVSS VL: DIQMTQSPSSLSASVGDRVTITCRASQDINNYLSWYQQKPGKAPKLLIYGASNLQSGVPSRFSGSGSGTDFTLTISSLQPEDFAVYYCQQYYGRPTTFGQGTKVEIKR | nM | 5
Example 289 (antibody, human IgG1, kappa, V domains shown, linker-toxophore on cysteine S) VH: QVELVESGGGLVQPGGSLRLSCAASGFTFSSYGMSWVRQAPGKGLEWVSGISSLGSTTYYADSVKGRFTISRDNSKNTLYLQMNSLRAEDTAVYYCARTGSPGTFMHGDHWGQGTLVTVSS VL: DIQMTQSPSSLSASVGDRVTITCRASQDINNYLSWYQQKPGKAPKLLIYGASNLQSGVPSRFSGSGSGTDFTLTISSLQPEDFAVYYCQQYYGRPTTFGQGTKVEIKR | nM | 49
Example 306 (antibody, human IgG1, kappa, V domains shown, linker-toxophore on lysine NH) VH: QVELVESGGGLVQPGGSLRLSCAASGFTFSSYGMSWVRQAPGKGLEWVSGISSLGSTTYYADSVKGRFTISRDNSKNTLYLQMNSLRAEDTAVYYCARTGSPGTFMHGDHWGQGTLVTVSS VL: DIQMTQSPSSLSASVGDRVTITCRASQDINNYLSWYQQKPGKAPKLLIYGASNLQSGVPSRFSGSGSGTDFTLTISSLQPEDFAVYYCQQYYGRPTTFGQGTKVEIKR | nM | 66

For this binder ( Example 280 (antibody, human IgG1, kappa, V domains shown, linker-toxophore on cysteine S) VH: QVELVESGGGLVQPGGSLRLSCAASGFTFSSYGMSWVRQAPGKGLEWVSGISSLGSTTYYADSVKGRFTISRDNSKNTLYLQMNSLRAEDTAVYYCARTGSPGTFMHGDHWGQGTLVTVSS VL: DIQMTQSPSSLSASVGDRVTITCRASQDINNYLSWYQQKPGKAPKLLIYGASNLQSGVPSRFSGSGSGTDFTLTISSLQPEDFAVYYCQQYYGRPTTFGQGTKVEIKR ), measured EC50 (nM) HT29 is 2.9
